- assay.protocol: Steady-state plasma concentrations of polymyxin B (total of B1, B2, B1-Ile) by LC-MS/MS
- Type: in vivo
- stated.conditions: human, iv, 50 mg, patient ID 15, TIME 266.25, DOSE 50 every 12 from 133 (DUR 1, ADDL 11), WT 50, CCR 35.85, ALB 29.5, APACHE 39, single measurement, read-out: OUT (observed polymyxin B plasma concentration)
Positions of bridges follow the written chain, without caps; N, C: chain ends. Non-standard residues stand in square brackets, D forms with d. Residues, ends and D or L forms follow the SMILES beside them. *: point of attachment. X1 = CC[C@H](C)CCCCC(=O)*; Dab = NCC[C@H](N)C(=O)O
measured.endpoint: level at 266.25 h (ng/mL)

1. CC[C@H](C)CCCCC(=O)N[C@@H](CCN)C(=O)N[C@H](C(=O)N[C@@H](CCN)C(=O)N[C@H]1CCNC(=O)[C@H]([C@@H](C)O)NC(=O)[C@H](CCN)NC(=O)[C@H](CCN)NC(=O)[C@H](CC(C)C)NC(=O)[C@@H](Cc2ccccc2)NC(=O)[C@H](CCN)NC1=O)[C@@H](C)O [polymyxin B] (X1-[Dab]T[Dab][Dab][Dab][dF]L[Dab][Dab]T; lactam 4-C); 4870

* * *

- assay.protocol: Steady-state plasma concentrations of polymyxin B (total of B1, B2, B1-Ile) by LC-MS/MS
- Type: in vivo
- stated.conditions: human, iv, 50 mg, patient ID 9, TIME 145, DOSE 50 from 0, ADDL 11, II 12, DUR 1, WT 55, CCR 34.79, ALB 30.8, APACHE 15, single sample, read-out: OUT (observed polymyxin B plasma concentration)
Positions of bridges follow the written chain, without caps; N, C: chain ends. Non-standard residues stand in square brackets, D forms with d. Residues, ends and D or L forms follow the SMILES beside them. *: point of attachment. X1 = CC[C@H](C)CCCCC(=O)*; Dab = NCC[C@H](N)C(=O)O
measured.endpoint: level at 145 h

1) CC[C@H](C)CCCCC(=O)N[C@@H](CCN)C(=O)N[C@H](C(=O)N[C@@H](CCN)C(=O)N[C@H]1CCNC(=O)[C@H]([C@@H](C)O)NC(=O)[C@H](CCN)NC(=O)[C@H](CCN)NC(=O)[C@H](CC(C)C)NC(=O)[C@@H](Cc2ccccc2)NC(=O)[C@H](CCN)NC1=O)[C@@H](C)O [polymyxin B] (X1-[Dab]T[Dab][Dab][Dab][dF]L[Dab][Dab]T; lactam 4-C); 2890 ng/mL

* * *

- assay.protocol: Steady-state plasma concentrations of polymyxin B (total of B1, B2, B1-Ile) by LC-MS/MS
- Assay type: in vivo
- stated.conditions: human, iv, patient ID 20, TIME 84, DOSE 100 at 0 then 50 every 12 from 12 (ADDL 6), DUR 1.45, WT 75, CCR 84.86, ALB 29.5, APACHE 18, single measurement, read-out: OUT (observed polymyxin B plasma concentration)
Positions of bridges follow the written chain, without caps; N, C: chain ends. Non-standard residues stand in square brackets, D forms with d. Residues, ends and D or L forms follow the SMILES beside them. *: point of attachment. X1 = CC[C@H](C)CCCCC(=O)*; Dab = NCC[C@H](N)C(=O)O
measured.endpoint: level at 84 h (ng/mL)

1) CC[C@H](C)CCCCC(=O)N[C@@H](CCN)C(=O)N[C@H](C(=O)N[C@@H](CCN)C(=O)N[C@H]1CCNC(=O)[C@H]([C@@H](C)O)NC(=O)[C@H](CCN)NC(=O)[C@H](CCN)NC(=O)[C@H](CC(C)C)NC(=O)[C@@H](Cc2ccccc2)NC(=O)[C@H](CCN)NC1=O)[C@@H](C)O [polymyxin B] (X1-[Dab]T[Dab][Dab][Dab][dF]L[Dab][Dab]T; lactam 4-C); 1960

* * *

- assay.protocol: Steady-state plasma concentrations of polymyxin B (total of B1, B2, B1-Ile) by LC-MS/MS
- Assay type: in vivo
- stated.conditions: human, iv, patient ID 11, TIME 102, DOSE 100 at 0 then 50 every 12 to 96, DUR 2, WT 55, CCR 67.29, ALB 30.9, APACHE 46, single sample, read-out: OUT (observed polymyxin B plasma concentration)
Positions of bridges follow the written chain, without caps; N, C: chain ends. Non-standard residues stand in square brackets, D forms with d. Residues, ends and D or L forms follow the SMILES beside them. *: point of attachment. X1 = CC[C@H](C)CCCCC(=O)*; Dab = NCC[C@H](N)C(=O)O
measured.endpoint: level at 102 h

1. CC[C@H](C)CCCCC(=O)N[C@@H](CCN)C(=O)N[C@H](C(=O)N[C@@H](CCN)C(=O)N[C@H]1CCNC(=O)[C@H]([C@@H](C)O)NC(=O)[C@H](CCN)NC(=O)[C@H](CCN)NC(=O)[C@H](CC(C)C)NC(=O)[C@@H](Cc2ccccc2)NC(=O)[C@H](CCN)NC1=O)[C@@H](C)O [polymyxin B] (X1-[Dab]T[Dab][Dab][Dab][dF]L[Dab][Dab]T; lactam 4-C); 2530 ng/mL

* * *

- assay.protocol: Population pharmacokinetic (PPK) model, non-parametric adaptive grid (Pmetrics), critically ill patients
- Type: in vivo, human
- stated.conditions: human, plasma, iv, data splitting, 20% of the data; read-out: CL, mean value (converted)
Positions of bridges follow the written chain, without caps; N, C: chain ends. Non-standard residues stand in square brackets, D forms with d. Residues, ends and D or L forms follow the SMILES beside them. *: point of attachment. X1 = CC[C@H](C)CCCCC(=O)*; Dab = NCC[C@H](N)C(=O)O
measured.endpoint: clearance (mL/min)

1. CC[C@H](C)CCCCC(=O)N[C@@H](CCN)C(=O)N[C@H](C(=O)N[C@@H](CCN)C(=O)N[C@H]1CCNC(=O)[C@H]([C@@H](C)O)NC(=O)[C@H](CCN)NC(=O)[C@H](CCN)NC(=O)[C@H](CC(C)C)NC(=O)[C@@H](Cc2ccccc2)NC(=O)[C@H](CCN)NC1=O)[C@@H](C)O [polymyxin B] (X1-[Dab]T[Dab][Dab][Dab][dF]L[Dab][Dab]T; lactam 4-C); 21.8

* * *

- assay.protocol: Steady-state plasma concentrations of polymyxin B (total of B1, B2, B1-Ile) by LC-MS/MS
- Format: in vivo
- stated.conditions: human, iv, 75 mg, patient ID 12, TIME 97, DOSE 75 from 0, ADDL 9, II 12, DUR 1, WT 60, CCR 104.47, ALB 33.9, APACHE 24, single sample, read-out: OUT (observed polymyxin B plasma concentration)
Positions of bridges follow the written chain, without caps; N, C: chain ends. Non-standard residues stand in square brackets, D forms with d. Residues, ends and D or L forms follow the SMILES beside them. *: point of attachment. X1 = CC[C@H](C)CCCCC(=O)*; Dab = NCC[C@H](N)C(=O)O
measured.endpoint: level at 97 h

1. CC[C@H](C)CCCCC(=O)N[C@@H](CCN)C(=O)N[C@H](C(=O)N[C@@H](CCN)C(=O)N[C@H]1CCNC(=O)[C@H]([C@@H](C)O)NC(=O)[C@H](CCN)NC(=O)[C@H](CCN)NC(=O)[C@H](CC(C)C)NC(=O)[C@@H](Cc2ccccc2)NC(=O)[C@H](CCN)NC1=O)[C@@H](C)O [polymyxin B] (X1-[Dab]T[Dab][Dab][Dab][dF]L[Dab][Dab]T; lactam 4-C); 9560 ng/mL

* * *

- assay.protocol: Steady-state plasma concentrations of polymyxin B (total of B1, B2, B1-Ile) by LC-MS/MS
- Assay type: in vivo
- stated.conditions: human, iv, 50 mg, patient ID 16, TIME 174, DOSE 50 every 12 from 0 (DUR 2, ADDL 14), WT 65, CCR 75.18, ALB 32, APACHE 31, single measurement, read-out: OUT (observed polymyxin B plasma concentration)
Positions of bridges follow the written chain, without caps; N, C: chain ends. Non-standard residues stand in square brackets, D forms with d. Residues, ends and D or L forms follow the SMILES beside them. *: point of attachment. X1 = CC[C@H](C)CCCCC(=O)*; Dab = NCC[C@H](N)C(=O)O
measured.endpoint: level at 174 h

1. CC[C@H](C)CCCCC(=O)N[C@@H](CCN)C(=O)N[C@H](C(=O)N[C@@H](CCN)C(=O)N[C@H]1CCNC(=O)[C@H]([C@@H](C)O)NC(=O)[C@H](CCN)NC(=O)[C@H](CCN)NC(=O)[C@H](CC(C)C)NC(=O)[C@@H](Cc2ccccc2)NC(=O)[C@H](CCN)NC1=O)[C@@H](C)O [polymyxin B] (X1-[Dab]T[Dab][Dab][Dab][dF]L[Dab][Dab]T; lactam 4-C); 2970 ng/mL
